test system: Rattus norvegicus; test: Analysis of lipid-soluble radioactivity in liver 24 hour after iv administration of [125I]-labeled 2-Oleoyl 1,3-disubstituted Triacylglycerols expressed as %parent compound (by TLC with authentic [125I]-labeled standard) from rat; type: ADME, organism-based; conditions: in vivo
measurement_name: Lipid-soluble radioactivity

Use these answered entries as a reference point.
CCCCCCCC/C=C/CCCCCCCC(=O)OC(COC(=O)Cc1c(I)cc(I)c(N)c1I)COC(=O)Cc1c(I)cc(I)c(N)c1I = 87.5
CCCCCCCC/C=C/CCCCCCCC(=O)OC(COC(=O)CCCCCc1c(I)cc(I)c(N)c1I)COC(=O)CCCCCc1c(I)cc(I)c(N)c1I = 97.9
CCCCCCCC/C=C/CCCCCCCC(=O)OC(COC(=O)C(CC)Cc1c(I)cc(I)c(N)c1I)COC(=O)C(CC)Cc1c(I)cc(I)c(N)c1I (stereo not given) = 64.7

P. CCCCCCCC/C=C/CCCCCCCC(=O)OC(COC(=O)CCCCc1c(I)cc(I)c(N)c1I)COC(=O)CCCCc1c(I)cc(I)c(N)c1I
Q. CCCCCCCC/C=C/CCCCCCCC(=O)OC(COC(=O)CCCCCCc1c(I)cc(I)c(N)c1I)COC(=O)CCCCCCc1c(I)cc(I)c(N)c1I
Form: Entry with minimum Lipid-soluble radioactivity (choose one): P / Q Which one? Tell me its label.
Q
(Q: 0, P: 86.5)

Where do these numbers come from? They come from ChEMBL document CHEMBL1128242.
